# Tested on: Aspergillus versicolor
# assayExplanation: Fungicidal activity against Aspergillus versicolor BAM8 ATCC 11730 after 7 days by microtiter method
# Assay type: functional
# conditionParameters: BAM8 ATCC 11730, 168 h
propertyMeasured: MFC

| compound | propertyMeasured | assayValue |
| --- | --- | --- |
| CCCSc1ccc2c(cc1=O)[C@@H](N)CCc1cc(OC)c(OC)c(OC)c1-2 | MFC | > 4000 µg/mL |

Request: What does the record list as MFC for CCCCSc1ccc2c(cc1=O)[C@@H](N)CCc1cc(OC)c(OC)c(OC)c1-2 ?
Result: > 4000 µg/mL

Request: What does the record list as MFC for COc1cc2c(c(OC)c1OC)-c1ccc(OC)c(=O)cc1[C@@H](NC(C)=O)CC2 [COLCHICINE] ?
Result: > 4000 µg/mL

Request: What does the record list as MFC for CCCCNC(=O)OCC#CI [IODOCARB] ?
Result: 2 µg/mL

Request: What does the record list as MFC for O=C(/C=C/c1ccccc1)c1ccccc1 [CHALCONE] ?
Result: 2000 µg/mL

Request: What does the record list as MFC for COc1cc2c(c(OC)c1OC)-c1ccc(SC(C)C)c(=O)cc1[C@@H](N)CC2 ?
Result: > 4000 µg/mL

====

# System: Aureobasidium pullulans
# assayExplanation: Fungicidal activity against Aureobasidium pullulans BAM10 ATCC 9348 after 7 days by microtiter method
# Format: functional
# conditionParameters: BAM10 ATCC 9348, 168 h
Each entry below carries its reported MFC.

| compoundStructure | measuredOn | propertyMeasured | assayValue |
| --- | --- | --- | --- |
| CCCSc1ccc2c(cc1=O)[C@@H](N)CCc1cc(OC)c(OC)c(OC)c1-2 | Aureobasidium pullulans | MFC | > 4000 µg/mL |
| CCCCSc1ccc2c(cc1=O)[C@@H](N)CCc1cc(OC)c(OC)c(OC)c1-2 | Aureobasidium pullulans | MFC | 260 µg/mL |
| COc1cc2c(c(OC)c1OC)-c1ccc(SC(C)C)c(=O)cc1[C@@H](N)CC2 | Aureobasidium pullulans | MFC | 260 µg/mL |

Request: What does the record list as MFC for CCCCNC(=O)OCC#CI ?
Result: 1 µg/mL

Request: What does the record list as MFC for COc1cc2c(c(OC)c1OC)-c1ccc(OC)c(=O)cc1[C@@H](NC(C)=O)CC2 ?
Result: 0.001 µg/mL

Request: What does the record list as MFC for O=C(/C=C/c1ccccc1)c1ccccc1 ?
Result: 500 µg/mL

====

Each entry below carries its reported MFC.
# Tested on: Trichoderma viride
# assayExplanation: Fungicidal activity against Trichoderma viride Pers after 7 days by microtiter method
# Type: functional
# conditionParameters: 168 h
The reply should contain only the number, in µg/mL.

Request: What does the record list as MFC for COc1cc2c(c(OC)c1OC)-c1ccc(SC(C)C)c(=O)cc1[C@@H](N)CC2 ?
Result: 2000

====

# Tested on: Aspergillus niger
# assayExplanation: microbe, parasite or virus in culture
# Format: functional
# conditionParameters: van Tiegen BAM4 ATCC 6275, 168 h
# Description: Antifungal activity against Aspergillus niger van Tiegen BAM4 ATCC 6275 after 7 days by microtiter method
propertyMeasured: MFC

Completed entries (count: 10):
| compound | propertyMeasured | assayValue |
| --- | --- | --- |
| CCCSc1ccc2c(cc1=O)[C@@H](N)CCc1cc(OC)c(OC)c(OC)c1-2 | MFC | > 4000 µg/mL |
| O=C(/C=C/c1ccccc1)c1ccccc1 [CHALCONE] | MFC | 65 µg/mL |
| COc1cc2c(c(OC)c1OC)-c1ccc(SC(C)C)c(=O)cc1[C@@H](N)CC2 | MFC | > 4000 µg/mL |
| COc1cc2c(c(OC)c1OC)-c1ccc(SC(C)C)c(=O)cc1[C@@H](NC(C)=O)CC2 | MFC | > 4000 µg/mL |
| CCCCSc1ccc2c(cc1=O)[C@@H](N)CCc1cc(OC)c(OC)c(OC)c1-2 | MFC | > 4000 µg/mL |
| CCCCSc1ccc2c(cc1=O)[C@@H](NC(C)=O)CCc1cc(OC)c(OC)c(OC)c1-2 | MFC | > 4000 µg/mL |
| COc1cc2c(c(OC)c1OC)-c1ccc(OC)c(=O)cc1[C@@H](NC(C)=O)CC2 [COLCHICINE] | MFC | > 4000 µg/mL |
| CCCCNC(=O)OCC#CI [IODOCARB] | MFC | 2 µg/mL |
| CCSc1ccc2c(cc1=O)[C@@H](N)CCc1cc(OC)c(OC)c(OC)c1-2 | MFC | > 4000 µg/mL |
| CCCSc1ccc2c(cc1=O)[C@@H](NC(C)=O)CCc1cc(OC)c(OC)c(OC)c1-2 | MFC | > 4000 µg/mL |

Now for the compound whose MFC we want.
Request: What does the record list as MFC for CCSc1ccc2c(cc1=O)[C@@H](NC(C)=O)CCc1cc(OC)c(OC)c(OC)c1-2 ?
Result: > 4000 µg/mL

====

# System: Aspergillus versicolor
# assayExplanation: microbe, parasite or virus in culture
# Assay type: functional
# conditionParameters: BAM8 ATCC 11730, 168 h
# Description: Antifungal activity against Aspergillus versicolor BAM8 ATCC 11730 after 7 days by microtiter method
propertyMeasured: MFC (µg/mL)
The reply should contain only the number, in µg/mL.

| compoundStructure | measuredOn | unitString | assayValue |
| --- | --- | --- | --- |
| CCCCNC(=O)OCC#CI | Aspergillus versicolor | µg/mL | 2 |

Now for the compound whose MFC we want.
Request: Please state recorded MFC (tested on Aspergillus versicolor) of O=C(/C=C/c1ccccc1)c1ccccc1
Result: 2000

====

# Test system: Chaetomium globosum
# assayExplanation: microbe, parasite or virus in culture
# Type: functional
# conditionParameters: BAM12 ATCC 6205, 168 h
# Description: Antifungal activity against Chaetomium globosum BAM12 ATCC 6205 after 7 days by microtiter method
propertyMeasured: MIC

Completed entries (count: 2):
| compound | propertyMeasured | assayValue |
| --- | --- | --- |
| CCCSc1ccc2c(cc1=O)[C@@H](N)CCc1cc(OC)c(OC)c(OC)c1-2 | MIC | > 4000 µg/mL |
| COc1cc2c(c(OC)c1OC)-c1ccc(SC(C)C)c(=O)cc1[C@@H](N)CC2 | MIC | 130 µg/mL |

Request: What does the record list as MIC for CCSc1ccc2c(cc1=O)[C@@H](N)CCc1cc(OC)c(OC)c(OC)c1-2 ?
Result: > 4000 µg/mL

Request: What does the record list as MIC for COc1cc2c(c(OC)c1OC)-c1ccc(SC(C)C)c(=O)cc1[C@@H](NC(C)=O)CC2 ?
Result: > 4000 µg/mL

Request: What does the record list as MIC for CCCCSc1ccc2c(cc1=O)[C@@H](NC(C)=O)CCc1cc(OC)c(OC)c(OC)c1-2 ?
Result: > 4000 µg/mL

Request: What does the record list as MIC for CCSc1ccc2c(cc1=O)[C@@H](NC(C)=O)CCc1cc(OC)c(OC)c(OC)c1-2 ?
Result: > 4000 µg/mL

Request: What does the record list as MIC for CCCCSc1ccc2c(cc1=O)[C@@H](N)CCc1cc(OC)c(OC)c(OC)c1-2 ?
Result: 130 µg/mL

Request: What does the record list as MIC for O=C(/C=C/c1ccccc1)c1ccccc1 [CHALCONE] ?
Result: 130 µg/mL

Request: What does the record list as MIC for CCCSc1ccc2c(cc1=O)[C@@H](NC(C)=O)CCc1cc(OC)c(OC)c(OC)c1-2 ?
Result: > 4000 µg/mL

Request: What does the record list as MIC for COc1cc2c(c(OC)c1OC)-c1ccc(OC)c(=O)cc1[C@@H](NC(C)=O)CC2 [COLCHICINE] ?
Result: > 4000 µg/mL

Request: What does the record list as MIC for CCCCNC(=O)OCC#CI [IODOCARB] ?
Result: 5 µg/mL

====

Each entry below carries its reported MFC.
# Test system: Penicillium cyclopium
# assayExplanation: Fungicidal activity against Penicillium cyclopium Westling after 7 days by microtiter method
# Format: functional
# conditionParameters: 168 h
The reply should contain only the number, in mg/L.

| compound | unitString | MFC |
| --- | --- | --- |
| O=C(/C=C/c1ccccc1)c1ccccc1 [CHALCONE] | mg/L | 260 |
| CCCCSc1ccc2c(cc1=O)[C@@H](N)CCc1cc(OC)c(OC)c(OC)c1-2 | mg/L | 260 |

Request: What does the record list as MFC for COc1cc2c(c(OC)c1OC)-c1ccc(SC(C)C)c(=O)cc1[C@@H](N)CC2 ?
Result: 500

Request: What does the record list as MFC for CCCSc1ccc2c(cc1=O)[C@@H](N)CCc1cc(OC)c(OC)c(OC)c1-2 ?
Result: 2000

Request: What does the record list as MFC for CCCCNC(=O)OCC#CI [IODOCARB] ?
Result: 2
